# measurement_description: Oral bioavailability in Han Wistar rat at 10 mg/kg
# Type: ADME, organism-based
# run_conditions: in vivo
bioavailability: recorded values
A number alone suffices; assume %.

Answered examples (4):
COCCC(=O)N(C)c1ccc(Nc2ncc3cc(-c4ccncc4)ccc3n2)cc1	60
C[C@@H](NC1=CC(=O)CCC1)c1ccc(Nc2ncc3cc(-c4ccncc4)ccc3n2)cc1	17
COCCNC(C)c1ccc(Nc2ncc3cc(-c4ccncc4)ccc3n2)cc1 (stereo not given)	31
CC(=O)N[C@H](C)c1ccc(Nc2ncc3cc(-c4ccncc4)ccc3n2)cc1	100

Moving on to the next compound.
// bioavailability value for `C[C@@H](NC(=O)[C@H]1CCCCN1)c1ccc(Nc2ncc3cc(-c4ccncc4)ccc3n2)cc1` : 28
